Assay: clinical
Details: human, in vivo, T1/2
attribute_measured: half-life (h)
# unit: h | format: bare number

What does the data say about its half-life? Entry: `CN(C)CCNC(=O)c1cccc2cc3ccccc3nc12.Cl.Cl` 2.22
